# tested_on: T1, huMICA*004 alpha 3-his (human)
# T1 construct: whole construct entry: GS, alpha 3 domain, GNS, His8; also called MICA004.His; MICA*004 alpha3 construct
# T1 chain: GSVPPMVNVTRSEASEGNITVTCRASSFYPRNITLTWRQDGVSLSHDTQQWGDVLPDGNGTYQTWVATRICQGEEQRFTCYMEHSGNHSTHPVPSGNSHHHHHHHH
# assay_text: SPR, Biacore 8K, antibody on Protein A chip
Returns: string. Value is Satisfied if measured Kd is below 1 nM, and Not satisfied if it is greater than or equal to it.

Use these answered entries as a reference point.
Please let me know if 1D5v25 (antibody, IgG1, V domains shown, humanized variant of 1D5) VH: EVQLVQSGAEVKKPGASVKVSCKASGYAFTSQNIYWVRQAPGQGLEWIGYIEPYNVVPMYNPKFKGRVTITVDTSTSTAYLELSSLRSEDTAVYYCARSGSSNFDYWGQGTLVTVSS VL: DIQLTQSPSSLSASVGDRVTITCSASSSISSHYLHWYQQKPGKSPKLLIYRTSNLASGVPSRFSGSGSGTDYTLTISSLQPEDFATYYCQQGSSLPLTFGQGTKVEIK shows Kd below 1 nM. Satisfied

Dear reviewer, please state whether 15F11v3 (antibody, IgG1, V domains shown, humanized variant of 15F11) VH: EVQLVQSGAEVKKPGASVKVSCKASGYAFTSNNIYWVRQAPGQGLEWIGYIDPYIGRIIYNQQFKDRVTITADTSTSTAYLELSSLRSEDTAVYYCSRSGERSNFDYWGQGTLVTVSS VL: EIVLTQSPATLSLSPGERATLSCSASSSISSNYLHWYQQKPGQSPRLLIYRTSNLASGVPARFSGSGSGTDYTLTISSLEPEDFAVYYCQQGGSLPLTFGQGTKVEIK has Kd strictly beneath 1 nM. Not satisfied

Is 1 nM strictly greater than the binder's reported Kd? binder: 1D5v26 (antibody, IgG1, V domains shown, humanized variant of 1D5) VH: EVQLVQSGAEVKKPGASVKVSCKASGYAFTSQNIYWVRQAPGQGLEWIGYIEPYNVVPMYNPKFKGRVTITRDKSTSTAYLELSSLRSEDTAVYYCARSGSSNFDYWGQGTLVTVSS VL: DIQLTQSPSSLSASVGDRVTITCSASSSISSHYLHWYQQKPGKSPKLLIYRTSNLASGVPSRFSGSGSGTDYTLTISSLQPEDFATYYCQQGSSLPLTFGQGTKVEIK Not satisfied

Dear reviewer, please state whether 1D5v20 (antibody, IgG1, V domains shown, humanized variant of 1D5) VH: EIQLVQSGAEVKKPGASVKVSCKASGYAFTSQNIYWVRQAPGQGLEWIGYIEPYNVVPMYNPKFKGRVTLTVDKSTSTAYLELSSLRSEDTAVYYCARSGSSNFDYWGQGTLVTVSS VL: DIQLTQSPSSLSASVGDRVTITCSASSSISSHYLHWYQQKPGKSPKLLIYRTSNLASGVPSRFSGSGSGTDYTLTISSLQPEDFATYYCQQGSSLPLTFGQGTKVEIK has Kd strictly beneath 1 nM. Satisfied

Continuing:
API: query returns whether the binder falls strictly under 1 nM in Kd. Query: 15F11 (antibody, V domains shown, mouse variable domains) VH: EIQLQQSGPELVKPGASVRVSCKPSGYAFTSNNIYWVKQSRRKSLEWIGYIDPYIGRIIYNQQFKDKATLTVDKSSSTAYMHLNSLTSEDSAVYYCSRSGERSNFDYWGQGTTLTVSS VL: EIVLTQSPTAMAASPGEKITITCSASSSISSNYLHWYQQKPGFSPKLLIYRTSNLASGVPARFSGSGSGTSYSLTIGPMEAEDVATYYCQQGGSLPLTFGAGTKVEIK Not satisfied
